// data source = PubChem BioAssay AID435005

- test description: inhibitors of cytokine-induced beta cell apoptosis, primary screen, luminescence (AID 435005);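 further: 0% = cytokine-treated negative control wells and 100% = positive control rescue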
- run conditions: INS-1E cytokine-induced death, ATP luminescence, 48 h; percent of positive-control rescue, neutral wells zero; concentration not given here
The whole screen tested about 300,000 compounds, of which about 2,400 (0.8%) were called active.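 How the source made its calls: active means Every replicate reaches about 75%, or at least half do and their mean reaches it too (limit read from the data); inconclusive means At least half of replicates reach the limit but their mean does not; inactive means Under half of replicates reach the limit.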 The entries come from a sample that favours actives as a whole.
Return exactly one item of active, inactive

Exercise: I'd appreciate the recorded outcome for `CC(=O)c1c(C)[nH]c(C(=O)COc2ccc3c(C)cc(=O)oc3c2)c1C` from this test.
Key: inactive

Exercise: I'd appreciate the recorded outcome for `O=Cc1cn(Cc2ccccc2)nc1-c1cccnc1` from this test.
Key: inactive

Exercise: I'd appreciate the recorded outcome for `CCn1nc(C(=O)Nc2ccc(N3CCOCC3)cc2)c2ccccc2c1=O` from this test.
Key: inactive

Exercise: I'd appreciate the recorded outcome for `C/C(=N\NS(=O)(=O)c1ccccc1)c1c(O)cc(C)oc1=O` from this test.
Key: inactive

====

- test description: inhibitors of cytokine-induced beta cell apoptosis, primary screen, luminescence (AID 435005);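 further: 0% = cytokine-treated negative control wells and 100% = positive control rescue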
- run conditions: INS-1E cytokine-induced death, ATP luminescence, 48 h; stronger effect = higher value; percent of positive-control rescue, neutral wells zero; concentration not given here
Screen size: about 300,000 compounds; about 2,400 (0.8%) were called active. This is one part of a sample in which actives are shown more often than they occur.
quantity: protection from apoptosis (%)
Numbers only, in %.

• COc1ccc(Cl)cc1NC(=O)COC(=O)c1ccc(Br)o1 = -10.1
• COc1ccc(C(=O)C(C)OC(=O)c2cccc(S(=O)(=O)Nc3c(C)n(C)n(-c4ccccc4)c3=O)c2)cc1 (stereo not given) = -20.9
• COc1ccc(OCC(=O)NNC(=O)C2CCC2)cc1 = -4.44
• O=C(Nc1ccc(C(F)(F)F)cc1)c1cccc(-n2cnnn2)c1 = 8.03

Exercise: For the molecule shown here, `CN(C(=O)c1cccc(NC(=O)Cc2ccc([N+](=O)[O-])cc2)c1)C1CCC1` , give the reported protection from apoptosis.
Key: -5.07

====

Assignment: determine reported protection from apoptosis for the given compounds.
- test description: inhibitors of cytokine-induced beta cell apoptosis, primary screen, luminescence (AID 435005);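 further: 0% = cytokine-treated negative control wells and 100% = positive control rescue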
- run conditions: INS-1E cytokine-induced death, ATP luminescence, 48 h; stronger effect = higher value; percent of positive-control rescue, neutral wells zero; concentration not given here
About 2,400 (0.8%) of roughly 300,000 compounds were called active. Shown is part of a subset that was picked to be rich in actives.
One number for each entry, in %.

• COc1ccccc1S(=O)(=O)NCc1ccc(C(=O)N(C)Cc2ccc(F)cc2)cc1 = -4.62
• O=C1NC[C@@H](c2ccccc2)OC(=O)[C@H](Cc2ccc(F)cc2)CC/C=C/C[C@H]1CC(=O)N(CCO)Cc1ccccc1 = 5.81
• O=C1NC(Cc2ccc(O)cc2)c2nc3ccc(Cl)cc3c(=O)n2-c2ccccc21 (stereo not drawn) = -3.47
• CC(OC(=O)c1c(F)cccc1F)C(=O)NCCC1=CCCCC1 (stereo not drawn) = -3.37
• CC1O[C@H](OC2C(COC3OC(CO)C(O)[C@H](O)C3O)OC(OC3CC[C@]4(C)C(CC[C@@]5(C)[C@@H]4C=C[C@]46OC[C@@]7(CCC(C)(C)C[C@H]74)C(O)C[C@@]56C)C3(C)C)C(O)C2O)C(O)C(O)C1O (stereo partly drawn) = -6.92
• CC(C)NC(=O)Nc1cccc2c1O[C@H](CN(C)S(=O)(=O)c1cccs1)[C@@H](C)CN([C@H](C)CO)C2=O = -19
• COc1ccc(C(=O)Nc2cc(S(=O)(=O)N3CCCC3)ccc2Cl)cc1 = -1.79

Now let's try a different one.
Exercise: For the compound shown here, `O=S(=O)([N-]c1nc2ccccc2nc1-[n+]1ccc(Cc2ccccc2)cc1)c1ccc(Br)s1` , give the reported protection from apoptosis.
Key: 118

====

- test description: inhibitors of cytokine-induced beta cell apoptosis, primary screen, luminescence (AID 435005);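 further: 0% = cytokine-treated negative control wells and 100% = positive control rescue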
- run conditions: INS-1E cytokine-induced death, ATP luminescence, 48 h; stronger effect = higher value; percent of positive-control rescue, neutral wells zero; concentration not given here
Among all 300,000 compounds or so, about 2,400 (0.8%) were called active. The sample as a whole holds a higher share of actives than the screen did.
Assignment: determine reported protection from apoptosis for the given molecules.

# batch: return protection from apoptosis for each of the 6 molecules below
1. CCOC(=O)c1cnc(-c2ccccc2)nc1Oc1ccc(C)cc1
2. COc1ccc(NC(=O)/C(Cl)=C(/Cl)S(=O)Cc2ccc(C)cc2)cn1 (stereo unspecified)
3. Cc1ccc(NC(=O)OCc2cncs2)cc1
4. Cc1ccc(Oc2nc(-c3ccccn3)nc3ccccc23)cc1
5. Cc1onc(-c2c(F)cccc2Cl)c1C(=O)OCC(=O)N1C(C)CCCC1C (stereo unspecified)
6. Cn1c(=O)[nH]c(=O)c2c1nc(N1CCN(C(c3ccccc3)c3ccccc3)CC1)n2CCO

Key:
-3.84% (inactive)
106% (active)
-4.61% (inactive)
101% (active)
1.7% (inactive)
99.9% (active)

====

- test description: inhibitors of cytokine-induced beta cell apoptosis, primary screen, luminescence (AID 435005);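 further: 0% = cytokine-treated negative control wells and 100% = positive control rescue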
- run conditions: INS-1E cytokine-induced death, ATP luminescence, 48 h; stronger effect = higher value; percent of positive-control rescue, neutral wells zero; concentration not given here
The whole screen tested about 300,000 compounds, of which about 2,400 (0.8%) were called active. The sample as a whole holds a higher share of actives than the screen did.
quantity: protection from apoptosis (%)
Give bare numbers, in %.

• Cc1cccc(NC(=O)Nc2nnc(-c3ccccc3)o2)c1 = -2.12
• C/C(CC(=O)Nc1ccc(N(C)C)cc1)=N\NC(=O)c1ccccc1F = 1.37

Exercise: For the molecule shown here, `CCN(CC)CCCN=Cc1c(O)n(-c2ccc(C)cc2)c(=O)c2ccccc12` , give the reported protection from apoptosis.
Key: -3.92

====

- test description: inhibitors of cytokine-induced beta cell apoptosis, primary screen, luminescence (AID 435005);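 further: 0% = cytokine-treated negative control wells and 100% = positive control rescue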
- run conditions: INS-1E cytokine-induced death, ATP luminescence, 48 h; stronger effect = higher value; percent of positive-control rescue, neutral wells zero; concentration not given here
About 2,400 (0.8%) of roughly 300,000 compounds were called active. For the sample, actives were picked, then their nearest neighbours and some compounds at random.
quantity: protection from apoptosis (%)
Give bare numbers, in %.

• N#Cc1cc([N+](=O)[O-])ccc1NC(=O)COC(=O)c1cnccn1 = -1.22

# batch: return protection from apoptosis for each of the 7 compounds below
1. Cc1ccc(NC(=O)C2CCC(C(C)(C)C)CC2)cc1S(=O)(=O)N1CCOCC1 (stereo unspecified)
2. COc1ccc(N(C(=O)c2cccnc2)S(=O)(=O)c2ccc3c(c2)n(C)c(=O)n3C)cc1
3. O=C(COC(=O)c1ccccn1)NNC(=O)c1ccc(Br)cc1
4. O=C1C=C(c2cc(C(F)(F)F)cc(C(F)(F)F)c2)C[C@@H](c2ccc3c(c2)OCO3)C1
5. Cc1cc(C)n(-c2c(F)c(F)c(COC(=O)c3ccccc3)c(F)c2F)n1
6. CN(C)S(=O)(=O)c1cccc(NC(=O)COc2ccc3ccccc3c2)c1
7. C=CC[C@@H](CC(=O)N[C@H](CO)Cc1ccccc1)C(=O)N[C@@H](COC(=O)[C@@H](CC=C)Cc1ccc(F)cc1)Cc1c[nH]c2ccccc12

Key:
1. 6.89
2. -8.54
3. -13.1
4. 7.25
5. 3.67
6. -1.11
7. 2.3

====

- test description: inhibitors of cytokine-induced beta cell apoptosis, primary screen, luminescence (AID 435005);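 further: 0% = cytokine-treated negative control wells and 100% = positive control rescue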
- run conditions: INS-1E cytokine-induced death, ATP luminescence, 48 h; stronger effect = higher value; percent of positive-control rescue, neutral wells zero; concentration not given here
Among all 300,000 compounds or so, about 2,400 (0.8%) were called active. Only a selection was taken, and actives are over-represented in it overall.
quantity: protection from apoptosis (%)
One number for each entry, in %.

Some solved entries appear below for comparison.
• Cc1cccc(-c2nc(Nc3ccc(O)cc3)c3ccccc3n2)c1 = -3.47
• Cc1cc(C(=O)N/N=C/c2ccccn2)c2ccccc2n1 = -6.79
• CC(C)(C)C(=O)Nc1ccc(C(=O)N/N=C/c2ccccc2OC(=O)c2ccc(Cl)cc2Cl)cc1 = 87.8
• COc1ccccc1-c1sc2ccccc2c1C#CC1(O)CCCCC1 = -12
• COc1ccccc1-c1nnc2n1N=C(c1ccc(OC(F)F)c(OCC3CC3)c1)CS2 = 14.1
• CC(C)c1ccc(NC(=O)COC(=O)c2ccc(CN3CCCC3=O)cc2)cc1 = 3.42
• Clc1ccc(C[n+]2cc(-c3ccccc3)n3c2CCC3)cc1 = -17.9
• Cc1noc(C)c1NC(=O)Nc1cccc2c1O[C@H](CN(C)S(=O)(=O)c1c(C)noc1C)[C@@H](C)CN([C@H](C)CO)C2=O = 1.37
• O=C(N/N=C/c1ccoc1)c1ccc(Cl)cc1Cl = -6.52
• Cc1ccc(S(=O)(=O)N2CCN(c3ncnc4ccccc34)CC2)cc1 = 102

# batch: return protection from apoptosis for each of the 4 molecules below
1. CCOc1ccc(NS(=O)(=O)c2ccc(Cl)c(C(=O)N(C)Cc3cccnc3)c2)cc1
2. Fc1ccc(/C=N/Nc2nc(-c3cccnc3)nc3ccccc23)cc1
3. Cc1c(Cl)c([N+](=O)[O-])nn1Cc1ccc(C(=O)N/N=C\c2cc(Cl)ccc2O)o1
4. CC(=O)N1c2ccc(S(=O)(=O)N3CCCC(C(=O)Nc4cccc(Cl)c4)C3)cc2CC1C (configuration not stated)

Key:
1: 5.11; 2: 12.4; 3: 89.7; 4: 6.26

# batch: return protection from apoptosis for each of the 4 molecules below
1. Cc1ccc(C(=O)O)cc1NC(=O)c1ccc(Cn2nc(C)c(Cl)c2C)o1
2. CC(C)OCCCNC(=O)c1cc(Sc2ccc(F)cc2)nc2ccccc12
3. Cc1ccc(C)c(S(=O)(=O)N2CCN(c3ncnc4sccc34)CC2)c1
4. COc1ccc(OCCCC(=O)Nc2cccc(S(=O)(=O)N3CCCCCC3)c2)cc1

Key:
[1.11, 0.00619, 112, -3.4]

# batch: return protection from apoptosis for each of the 8 molecules below
1. COC(=O)[C@]1(CC(C)C)N[C@H](c2ccc(SC3CCCCC3)cc2)[C@@H]2C(=O)N(C)C(=O)[C@@H]21
2. CCC(CO)Oc1cc(NC(=O)c2cccc(F)c2)c2ncn(C(C)C)c2c1 (configuration not stated)
3. COc1ccc(C)cc1S(=O)(=O)N1CCN(S(=O)(=O)c2cc(C(=O)O)ccc2C)CC1
4. COc1cc(OC)c(OC)cc1/C=N/Nc1ncnc2c1[nH]c1ccc(C)cc12
5. CC(=O)N1CCCc2cc(S(=O)(=O)N3CCCC(C(=O)NCc4ccc(Cl)cc4)C3)ccc21 (configuration not stated)
6. COc1ccc(S(=O)(=O)Nc2cccc3c2O[C@H](CN(C)S(=O)(=O)c2ccc(OC)cc2)[C@@H](C)CN([C@H](C)CO)C3=O)cc1
7. CC(C)OCCCNc1ncnc2c1[nH]c1ccc(F)cc12
8. Cc1noc(C)c1C(=O)N1CCOCC1

Key:
1: 2.66; 2: -0.224; 3: -3.1; 4: 6; 5: 4.03; 6: -7.76; 7: 104; 8: -4.19

Exercise: For the molecule shown here, `COc1ccc(C(=O)O)cc1S(=O)(=O)NC1CCN(Cc2ccccc2)CC1` , give the reported protection from apoptosis.
Key: -4.08
